# assay_notes: Pharmacokinetic parameters for Carvedilol following oral administration of Carvedilol tablets.
# Assay type: ADME, organism-based
# assay_context: human, in vivo, dosed compound id 39, dosed compound name CARVEDILOL, tissue Plasma
measure: bioavailability

stdin: Tell me the measured bioavailability of COc1ccccc1OCCNCC(O)COc1cccc2[nH]c3ccccc3c12 (stereo unspecified) , please.
stdout: 25 to 35%

====

# Test system: Homo sapiens
# assay_notes: Pharmacokinetic parameters for Carvedilol following oral administration of Carvedilol tablets.
# Format: ADME, organism-based
# assay_context: in vivo, po, dosed compound id 39, dosed compound name CARVEDILOL, gender male and female, tissue Plasma
measure: t1/2(app)

stdin: Tell me the measured t1/2(app) of COc1ccccc1OCCNCC(O)COc1cccc2[nH]c3ccccc3c12 (stereo unspecified) , please.
stdout: 7 to 11 h
